The reported measurements were obtained from patent US6057314A.

# TARGET OF ASSAY: human thrombin (Homo sapiens, UniProt P00734)
# METHOD DESCRIPTION: Inhibition of amidolytic activity of human thrombin (Ki, fluorogenic substrate Tos-Gly-Pro-Arg-AMC)
# Format: biochemical
# ASSAY SETUP: Table 2, read-out: Ki
pKi: −log10 of the molar value.
QUANTITY NAME: pKi

P. N=C(N)NCCCC(NC(=O)[C@@H]1CSCC2CC[C@H](Cc3ccccc3)C(=O)N21)C(=O)c1nccs1 (stereo partly drawn)
Q. N=C(N)NCCCC(NC(=O)[C@@H]1CS[C@@H]2CC[C@@H](CCCC3CCCCC3)C(=O)N21)C(=O)c1nccs1 (single isomer, unassigned) [Compound 0265b]
R. N=C(N)NCCCC(NC(=O)[C@@H]1CS[C@@H]2CC[C@@H](CCCC3CCCCC3)C(=O)N21)C(=O)c1nccs1 (single isomer, unassigned) [Compound 0265a]
S. Cc1cnc(C(=O)C(CCCNC(=N)N)NC(=O)[C@@H]2CC[C@H]3CN(C(=O)CCc4ccccc4)CC(=O)N32)s1 (stereo partly drawn)
Q: Let's sort these by pKi, smallest first. Go ahead? Give the labels in the order specified.
Ans: P, Q, R, S
(P: 6.92, Q: 7.74, R: 8.40, S: 8.70)

----------
# TARGET OF ASSAY: human thrombin (Homo sapiens)
# METHOD DESCRIPTION: Inhibition of amidolytic activity of human thrombin (Ki, fluorogenic substrate Tos-Gly-Pro-Arg-AMC)
# Assay type: biochemical
# ASSAY SETUP: Table 1, read-out: Ki (inhibitory dissociation constant for human thrombin)
QUANTITY NAME: Ki (µM)

Some solved cases for reference:
N=C(N)NCCCC(NC(=O)[C@@H]1CSC2CC[C@@H](Cc3ccccc3)C(=O)N21)C1(CCCCC(N)=O)SCCS1 (stereo partly drawn) : 62
N=C(N)NCCCC(NC(=O)[C@@H]1CSC2CC[C@@H](Cc3ccccc3)C(=O)N21)C(=O)CCC(=O)O (stereo partly drawn) : 26

1. COC(=O)CCC(=O)C(CCCNC(=N)N)NC(=O)[C@@H]1CSC2CC[C@@H](Cc3ccccc3)C(=O)N21 (stereo partly drawn) [Compound 0100]
2. COC(=O)CCC1(C(CCCNC(=N)N)NC(=O)[C@@H]2CSC3CC[C@@H](CC4CCCCC4)C(=O)N32)SCCS1 (stereo partly drawn)
3. N=C(N)NCCCC(NC(=O)[C@@H]1CSC2CC[C@@H](CC3CCCCC3)C(=O)N21)C(=O)CCC(=O)N[C@@H](Cc1ccccc1)C(=O)N[C@@H](CCCNC(=N)N)C(N)=O (stereo partly drawn)
Q: Kindly order the items shown according to Ki, from the highest value down. Could you list the labels in the order requested?
Ans: 2, 1, 3

----------
# TARGET OF ASSAY: human thrombin (Homo sapiens, UniProt P00734)
# METHOD DESCRIPTION: Fibrin clot assay (human plasma, turbidity)
# Format: biochemical
# ASSAY SETUP: Table 1, 1 nM thrombin, at 30 minutes
QUANTITY NAME: IC50

CC(SCC(=O)C(CCCNC(=N)N)NC(=O)[C@@H]1CSC2CC[C@@H](CC3CCCCC3)C(=O)N21)C(=O)O (some centres unmarked) [Compound 0070] : 78 µM
CCCCC(=O)C(CCCNC(=N)N)NC(=O)[C@@H]1CSC2CC[C@@H](Cc3ccccc3)C(=O)N21 (some centres unmarked) [Compound 0010] : > 450 µM
COC(=O)CCC1(C(CCCNC(=N)N)NC(=O)[C@@H]2CSC3CC[C@@H](CC4CCCCC4)C(=O)N32)SCCS1 (some centres unmarked) [Compound 0025] : > 450 µM
N=C(N)NCCC[C@H](NC(=O)[C@@H]1CSC2CC[C@@H](CC3CCCCC3)C(=O)N21)C(=O)N1CCC(C(N)=O)CC1 (some centres unmarked) [Compound 0045] : > 450 µM

Let's switch to this molecule now.
Q: Give reported IC50 for N=C(N)NCCCC(NC(=O)[C@@H]1CSC2CC[C@@H](Cc3ccccc3)C(=O)N21)C1(CCC(N)=O)SCCS1 (some centres unmarked) [Compound 0035] (human thrombin (Homo sapiens, UniProt P00734))
Ans: > 450 µM
